Experiment: Intrinsic clearance in human liver microsomes at 1 uM measured upto 30 mins by LC/MS analysis
Type: ADME, Microsome
Conditions: read-out: CLH (converted)
readout_kind: predicted hepatic clearance at 1 µM (mL/min/kg)

CNS(=O)(=O)c1ccc(Nc2ncc3c(n2)N([C@@H]2CCC[C@@H](O)C2)C(=O)C32CC2)cc1 :: 13.3
CNS(=O)(=O)c1ccc(Nc2ncc3c(n2)N(c2cc(F)ccc2Cl)C(=O)C32CC2)cc1 :: 15
NS(=O)(=O)c1ccc(Nc2ncc3c(n2)N(C2CCCC2)C(=O)C32CC2)cc1 :: 13.3
CNS(=O)(=O)c1ccc(Nc2ncc3c(n2)N([C@@H](C)C2CC2)C(=O)C32CC2)cc1 :: 11.7
Cn1cc(S(=O)(=O)N2CCC(Nc3ncc4c(n3)N([C@@H]3CCC[C@@H](O)C3)C(=O)C43CC3)CC2)cn1 :: 16.7
CNS(=O)(=O)c1ccc(Nc2ncc3c(n2)N([C@@H]2CCC[C@@]2(C)O)C(=O)C32CC2)cc1 (relative stereo) :: 13.3

* * *

Experiment: AUC in Cynomolgus monkey at 2 mg/kg, po measured upto 24 hrs by LC-MS/MS analysis
Assay type: ADME, organism-based, Macaca fascicularis
Set-up: dose 2 mg/kg, time < 24 hrs, route po
Conditions: in vivo
readout_kind: AUC at 24 h (µM·h)

I: Cn1cc(S(=O)(=O)N2CCC(Nc3ncc4c(n3)N([C@@H]3CCC[C@@H](O)C3)C(=O)C43CC3)CC2)cn1
II: [2H]C([2H])([2H])NS(=O)(=O)c1ccc(Nc2ncc3c(n2)N([C@@H]2CCC[C@@H](O)C2)C(=O)C32CC2)cc1
IN: Select one. Lower AUC at 24 h: I or II Reply with the label of the item you choose.
OUT: I

* * *

Experiment: Volume of distribution at steady state in Sprague-Dawley rat at 0.5 mg/kg, iv measured upto 24 hrs by LC-MS/MS analysis
Type: ADME, organism-based
Conditions: Sprague-Dawley, in vivo, read-out: Vdss
readout_kind: Vd (L/kg)

P: [2H]C([2H])([2H])NS(=O)(=O)c1ccc(Nc2ncc3c(n2)N([C@@H]2CCC[C@@H](O)C2)C(=O)C32CC2)cc1
Q: Cn1cc(S(=O)(=O)N2CCC(Nc3ncc4c(n3)N([C@@H]3CCC[C@@H](O)C3)C(=O)C43CC3)CC2)cn1
IN: Select one. Lower Vd: P or Q Reply with the label of the item you choose.
OUT: P

* * *

Experiment: Metabolic stability in human liver microsomes assessed as compound oxidation at 5 uM measured upto 30 mins by HPLC/MS analysis
Type: ADME, Microsome
Details: liver microsomes, read-out: Drug metabolism
readout_kind: metabolised at 0.5 h, 5 µM (%)
A number alone suffices; assume %.

Quick note, metabolised at 0.5 h, 5 µM for [2H]C([2H])([2H])NS(=O)(=O)c1ccc(Nc2ncc3c(n2)N([C@@H]2CCC[C@@]2(C)O)C(=O)C32CC2)cc1 (relative stereo) landed at 5

* * *

Assay: Inhibition of CDK1/cyclin B (unknown origin) in presence of ATP
Design: species or system Homo sapiens
readout_kind: IC50 (nM)

CC[C@@H](C(F)F)N1C(=O)C2(CC2)c2cnc(NC3CCN(S(C)(=O)=O)CC3)nc21 :: 1690
Cn1cc(S(=O)(=O)N2CCC(Nc3ncc4c(n3)N(C3CCCC3)C(=O)C43CC3)CC2)cn1 :: 1280
